The compounds listed here are annotated with their IC50.
# target: Insulin-like growth factor 1 receptor (Homo sapiens)
# Sequence (P08069 31-736 limits assumed): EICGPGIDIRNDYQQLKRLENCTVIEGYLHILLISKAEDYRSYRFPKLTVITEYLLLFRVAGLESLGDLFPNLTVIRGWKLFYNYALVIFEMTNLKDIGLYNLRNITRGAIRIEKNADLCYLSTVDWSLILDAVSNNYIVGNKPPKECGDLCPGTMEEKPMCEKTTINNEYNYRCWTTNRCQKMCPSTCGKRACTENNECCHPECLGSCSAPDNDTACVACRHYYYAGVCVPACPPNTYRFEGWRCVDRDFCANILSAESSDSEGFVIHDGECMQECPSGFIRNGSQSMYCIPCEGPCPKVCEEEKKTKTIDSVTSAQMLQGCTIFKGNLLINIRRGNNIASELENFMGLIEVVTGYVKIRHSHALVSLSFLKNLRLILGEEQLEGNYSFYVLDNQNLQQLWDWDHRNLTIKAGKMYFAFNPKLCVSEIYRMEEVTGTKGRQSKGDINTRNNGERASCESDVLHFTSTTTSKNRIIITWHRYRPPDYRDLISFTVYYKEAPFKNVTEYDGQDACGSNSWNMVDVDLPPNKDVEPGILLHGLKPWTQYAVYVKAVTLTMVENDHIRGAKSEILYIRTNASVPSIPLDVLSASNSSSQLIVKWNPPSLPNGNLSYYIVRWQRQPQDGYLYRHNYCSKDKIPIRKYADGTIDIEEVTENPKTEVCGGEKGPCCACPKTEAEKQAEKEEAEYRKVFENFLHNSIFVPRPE
# Sequence (P08069 741-1367 limits assumed): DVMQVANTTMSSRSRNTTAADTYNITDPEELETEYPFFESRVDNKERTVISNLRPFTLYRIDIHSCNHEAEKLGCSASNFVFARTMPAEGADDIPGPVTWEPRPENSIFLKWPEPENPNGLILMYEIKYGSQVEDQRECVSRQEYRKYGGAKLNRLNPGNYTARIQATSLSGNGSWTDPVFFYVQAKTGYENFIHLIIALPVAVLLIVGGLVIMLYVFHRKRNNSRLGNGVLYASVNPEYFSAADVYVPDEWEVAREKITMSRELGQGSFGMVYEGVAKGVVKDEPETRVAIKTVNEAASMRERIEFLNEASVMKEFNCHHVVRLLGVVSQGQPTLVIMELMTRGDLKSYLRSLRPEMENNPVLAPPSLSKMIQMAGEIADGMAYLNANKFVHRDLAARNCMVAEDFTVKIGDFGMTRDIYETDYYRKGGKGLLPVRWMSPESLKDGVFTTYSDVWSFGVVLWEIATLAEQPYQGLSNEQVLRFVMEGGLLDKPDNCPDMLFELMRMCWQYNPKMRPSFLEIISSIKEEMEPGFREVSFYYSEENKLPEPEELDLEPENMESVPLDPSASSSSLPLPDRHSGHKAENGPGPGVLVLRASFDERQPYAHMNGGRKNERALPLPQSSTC
# assay_explanation: Inhibition of IGF1R
value_kind: IC50 (nM)

CN1CCN([C@H]2CC[C@@H](n3nc(-c4ccc(Nc5nc6cccc(C#N)c6o5)cc4)c4c(N)ncnc43)CC2)CC1 | 113
CC(C)N1CCN([C@H]2CC[C@H](n3nc(-c4ccc(Nc5nc6cccc(Cl)c6o5)cc4)c4c(N)ncnc43)CC2)CC1 | 45.1
CN1CCN([C@H]2CC[C@@H](n3nc(-c4ccc(Nc5nc6cc(Cl)cc(Cl)c6o5)cc4)c4c(N)ncnc43)CC2)CC1 | 584
CN1CCN([C@H]2CC[C@H](n3nc(-c4ccc(Nc5nc6cccc(Cl)c6o5)cc4)c4c(N)ncnc43)CC2)CC1 | 12.5
